Just for reference, PubChem BioAssay (NCI) is where these values come from.

test: NCI Yeast Anticancer Drug Screen. Data for the rad50 strain (AID 155);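 also: 0% = growth of vehicle-only cultures of the same strain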; conditions: S. cerevisiae rad50 strain growth inhibition; at 50.0 µM; active compounds read high
Compounds without any hit were thinned out: in the full panel of roughly 79,000, 15% have a hit.
// bucketize growth inhibition: bin A: < -10%; bin B: ≥ -10% and < 10%; bin C: ≥ 10%

Field: example entries. Status: answers known.
[[record]]
compound = "O=C(Oc1cc(Cl)c(S(=O)(=O)F)cc1Cl)c1ccc([N+](=O)[O-])cc1"
discrete_label = "bin C"

[[record]]
compound = "C[C@]12CC[C@H](O[C@@H]3O[C@H](CO[C@@H]4O[C@H](CO)[C@@H](O)[C@H](O)[C@H]4O)[C@@H](O)[C@H](O)[C@H]3O)C[C@@H]1CC[C@@H]1[C@@H]2CC[C@]2(C)[C@@H](C3=CC(=O)OC3)CC[C@]12O"
discrete_label = "bin B"

[[record]]
compound = "C#CC1(OC(C)=O)CCC2C3CCC4=CC(=O)CCC4(C)C3CCC21C (stereo not given)"
discrete_label = "bin C"

[[record]]
compound = "Nc1cccnc1"
discrete_label = "bin A"

[[record]]
compound = "CC(=O)CC(C)=O"
discrete_label = "bin B"


# input State the class of the compound shown: `OC1CCN(C2(c3ccccc3)CCCCC2)CC1`
# output bin A

# input Band of CC(Cc1ccc2c(c1)OCO2)NCC(O)c1ccc(O)c(O)c1 (stereo not given) ?
# output bin C

# input Please let me know in which category the item `C[C@@H]1C[C@@H]2c3cccc4c3c(cn4CO)C[C@H]2N(C)C1` belongs.
# output bin B

# input Into which category would you place COC1C(O)CC(OC2CC(Oc3cc4cc5c(c(O)c4c(O)c3C)C(=O)[C@@H](OC3CC(OC4CC(OC6CC(C)(O)C(OC(C)=O)C(C)O6)C(O)C(C)O4)C(O)C(C)O3)[C@H]([C@H](OC)C(=O)[C@@H](O)[C@@H](C)O)C5)OC(C)C2OC(C)=O)OC1C (stereo not given in full) ?
# output bin C

# input Each compound maps to one class by growth inhibition. Which class for `COc1ccc(C)cc1C(=O)C[n+]1ccc2ccccc2c1` ?
# output bin A

# input The entry to classify is `N#CC1(c2ccccc2)CCN(C2(c3ccccc3)CCCCC2)CC1` ; which class holds it?
# output bin A

# input Into which bin does this compound go? `O=C(COc1cccc(Cl)c1)Nc1cccc(NC(=O)c2ccc(S(=O)(=O)F)cc2)c1`
# output bin B

# input Class for `C[CH2][Sn]([CH2]C)([S]c1nc(O)cc(=O)[nH]1)[S]c1nc(O)cc(=O)[nH]1` ?
# output bin C

# input Category of COc1ccc(CC(N)c2nn[nH]n2)cc1 (stereo not given) :
# output bin B

# input Lab note: which band did `CCOP(=O)(OCC)C(=O)N(CC)CC` land in?
# output bin C

====

test: NCI Yeast Anticancer Drug Screen. Data for the rad50 strain (AID 155);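 also: 0% = growth of vehicle-only cultures of the same strain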; conditions: S. cerevisiae rad50 strain growth inhibition; at 50.0 µM; active compounds read high
Compounds without any hit were thinned out: in the full panel of roughly 79,000, 15% have a hit.
Assignment: determine reported growth inhibition for the given compounds.
Answers are plain numbers, in %.

[[record]]
compound = "CCCCOP(=O)(OCCCC)SCl"
measurement_units = "%"
measurement = -9.4

[[record]]
compound = "CCN1CCOC(O)(c2cc(Cl)cc(Cl)c2Cl)C1 (stereo not drawn)"
measurement_units = "%"
measurement = 17.4

[[record]]
compound = "CC(Cc1cccc2c1Nc1ccccc1S2)N(C)CCO (stereo not drawn)"
measurement_units = "%"
measurement = -60.2

[[record]]
compound = "Cc1ccccc1C(=O)[O][Pb]([CH3])([CH3])[CH3]"
measurement_units = "%"
measurement = 21.4

[[record]]
compound = "CC(NC1=NCCO1)c1ccsc1 (stereo not drawn)"
measurement_units = "%"
measurement = 21.9

[[record]]
compound = "O=C(CBr)OCS(=O)(=O)O"
measurement_units = "%"
measurement = -15.2

[[record]]
compound = "CCOP(=O)(CCN(C)C)OCC"
measurement_units = "%"
measurement = -6.45

[[record]]
compound = "COC(=O)/C=C/[C@H]1[C@H](C)N1S(=O)(=O)c1ccc(C)cc1 (stereo partly drawn)"
measurement_units = "%"
measurement = 8.75


Parameter requested: growth inhibition. Apply to each item below.
1. COc1ccc(C(O)(C(=O)OCCSC)c2ccc(OC)cc2)cc1
2. Clc1cccc2ccccc12
3. CC(Cl)CNC1CCCCC1 (stereo not drawn)
4. Cc1c(Cl)cc([N+](=O)[O-])c(O)c1[N+](=O)[O-]

# output
1. -5.1
2. 7.8
3. 6
4. 6.1

# input Reported growth inhibition for FC1(F)[Se]C2C3CCC(C3)C2C1(F)F (stereo not drawn) : what is it?
# output -30.9
